Item-by-item account of Activity
Tested on: Trypanosoma cruzi
Experimental Protocol: Antiparasitic activity against trypomastigotes of Trypanosoma cruzi Y assessed as induction of parasite death at 5 uM after 24 hrs using propidium iodide staining after 24 hrs by flow cytometry analysis
Assay type: functional
Reported Metric: Activity

INSERT INTO measurements (chemical_smiles, reported_metric, result) VALUES
  ('NC(=S)N/N=C(\COc1ccc(F)c(Cl)c1)c1ccc(Br)cc1', 'Activity', '34%'),
  ('CC(C)c1ccc(OC/C(=N\NC(N)=S)c2ccc(Br)cc2)cc1', 'Activity', '42.2%'),
  ('O=C(Cn1ccnc1[N+](=O)[O-])NCc1ccccc1', 'Activity', '4.2%'),
  ('NC(=S)N/N=C(\COc1ccc(Cl)c(Cl)c1)c1ccc(Br)cc1', 'Activity', '44.9%');
